TARGET: T1, HD (helicase domain) (human, UniProt O95786 229-793)
T1 sequence: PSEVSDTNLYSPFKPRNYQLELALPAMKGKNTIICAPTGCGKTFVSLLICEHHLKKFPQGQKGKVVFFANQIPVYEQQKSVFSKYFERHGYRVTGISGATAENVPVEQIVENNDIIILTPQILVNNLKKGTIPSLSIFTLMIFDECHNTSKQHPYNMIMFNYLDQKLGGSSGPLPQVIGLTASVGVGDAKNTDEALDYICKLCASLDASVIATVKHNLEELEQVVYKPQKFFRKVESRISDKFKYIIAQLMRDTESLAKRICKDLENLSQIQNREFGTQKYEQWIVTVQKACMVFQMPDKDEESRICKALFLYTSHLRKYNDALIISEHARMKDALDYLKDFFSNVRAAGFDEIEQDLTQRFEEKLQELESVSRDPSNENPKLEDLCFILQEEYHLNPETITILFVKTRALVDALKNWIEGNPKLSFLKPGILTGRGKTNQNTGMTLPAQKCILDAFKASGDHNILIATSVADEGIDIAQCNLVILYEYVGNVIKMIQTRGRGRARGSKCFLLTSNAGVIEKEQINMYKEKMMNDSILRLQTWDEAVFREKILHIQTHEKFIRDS
EXPERIMENT: EMSA
OUTCOME_MEASURE: pKd
By convention, pKd is the negative base-10 log of a molar concentration.

Identify measured pKd corresponding to 5'-ppp 14 dsRNA (dsRNA, 5'-triphosphate on top strand) RNA 1: ACCUCCCACCCCCG RNA 2: CGGGGGUGGGAGGU 6.12

From: paper PMC3522258
